# credit: ChEMBL document CHEMBL3507680

For each record, write down the corresponding cytotoxicity at 70.5 h.
Assay: Human HepG2 cell viability assay in 384 well format
Type: toxicity, cell-based
Parameters: dose 125 nL, time 70.5 hour; concentration not given beside the values
Details: HepG2 cells, read-out: Inhibition
Give bare numbers, in %.

Examples from the recorded data:
CC(C)=CCCC1(C)C=Cc2c(cc(C)n(CC(=O)O)c2=O)O1 (stereo not drawn) = -3.4
CN(CC(=O)NC(C)(C)C)Cc1cccc2c1OCCO2 = 33.4
Cc1ccc(N2CCO[C@H]3CN(Cc4ccccn4)C[C@H]32)nn1 = -9.99

Please give cytotoxicity at 70.5 h for each item listed below.
1. CNc1cncc(C2CCCN2Cc2ccnc(C)n2)n1 (stereo not drawn)
2. CCc1nc(C2CCCN2C(=O)c2ccc3c(c2)COC3)no1 (stereo not drawn)
3. CS(=O)(=O)N1CCc2[nH]nc(Cc3cccs3)c2C1
4. O=C(NCCNc1ncccn1)C1CCN(C(=O)c2ccoc2)CC1
5. Fc1cccc(-c2nc(CN3CCOC(Cn4cncn4)C3)co2)c1 (stereo not drawn)
6. O=C(CSCCN1CCOCC1)N1CCCCCC1
7. CNc1ncccc1C(=O)N1CCCC2(C1)C(=O)N(C)c1ccccc12 (stereo not drawn)
8. O=C1N(c2ccc(Cl)cc2)Cc2nc(=O)[nH]n21

1. -0.507
2. -2.9
3. -2.7
4. -3.53
5. -15.8
6. 29.9
7. -7.64
8. -11.3

Please give cytotoxicity at 70.5 h for each item listed below.
1. Cc1cn(CC(=O)Nc2cc(C(C)C)nn2C)cn1
2. CCn1cc(CN(C)S(=O)(=O)c2ccccc2)cn1

[-10.1, -6.94]

====

Assay: Human HepG2 cell viability assay in 384 well format
Format: toxicity, cell-based
Design: dose 125 nL, time 70.5 hour; concentration not given beside the values
Conditions: HepG2 cells, read-out: Inhibition
For each record, write down the corresponding cytotoxicity at 70.5 h.
Give bare numbers, in %.

Examples from the recorded data:
CCOc1cc(C)nc(N2CCN(C(=O)c3cc[nH]n3)CC2)n1 = -3.5
CCCNC(=O)C(C)n1cc(Br)cn1 (configuration not stated) = -11.8
O=C(NCCCO)c1nnsc1-c1ccc(Cl)cc1 = -13.1
CC(C)n1cnnc1SCCN(C)c1ccccc1 = -6.85
COc1ccc(CN2C[C@H]3C[C@H](C(=O)Nc4cccnc4)[C@@H](C2)O3)cc1 = -3.51
CCOCCNCC1CCN(CCO)CC1 = -3.07

Sample COc1ccc(C(O)CNC(=O)NCc2nc(C)cs2)cc1 (configuration not stated) — what was its cytotoxicity at 70.5 h? -3.39

====

For each record, write down the corresponding cytotoxicity at 70.5 h.
Test: Human HepG2 cell viability assay in 384 well format
Format: toxicity, cell-based
Design: dose 125 nL, time 70.5 hour; concentration not given beside the values
Settings: HepG2 cells, read-out: Inhibition
Numbers only, in %.

Examples from the recorded data:
O=C(c1cccs1)N1CC[C@H]2C[C@@H](c3nnc(C4CC4)o3)O[C@@H]2C1 = -7
Cc1cc(C)n(CCN(C)c2ccc(-c3nc(C4CC4)no3)cn2)n1 = 10.5
Cc1c[nH]nc1C1CCCN(c2cnccn2)C1 (stereo unspecified) = -2.27

Please give cytotoxicity at 70.5 h for each item listed below.
1. O=C(NCc1cc(Br)cs1)Nc1cn[nH]c1
2. COCCCNC(=O)COc1ccccc1C(F)(F)F
3. CC(Cn1cccn1)NC(=O)N1CCN(Cc2ccncc2)CC1 (stereo unspecified)
4. CCc1n[nH]c(C2CN(Cc3nc(C4CC4)no3)CCO2)n1 (stereo unspecified)
5. O=C(c1ccc2[nH]c(=O)[nH]c2c1)N1CCC(Nc2cccnn2)CC1
6. CN(C)C(=O)CN1CC[C@]2(CN(CC3CC3)C[C@H]2c2ccccc2)C1=O
7. Fc1ccccc1C(CNc1ccncn1)N1CCCC1 (stereo unspecified)
8. CC(C)C(=O)NCCc1nc(-c2ccncc2)n[nH]1

1. -23.7
2. -5.58
3. -5.78
4. -3.3
5. -9.22
6. -6.06
7. -8.28
8. -2.41

Please give cytotoxicity at 70.5 h for each item listed below.
1. Cn1ccnc1CN1CCC2(CC(=O)N(c3ccsc3)C2)C1 (stereo unspecified)
2. Cc1cccc(N2CC3(CCN(c4nncs4)C3)CC2=O)c1 (stereo unspecified)
3. NC(=O)C1(c2cnccn2)CCCN1Cc1ccncc1 (stereo unspecified)
4. Cc1cccn2cc(CNCc3cccc4c3OCCCO4)nc12
5. O=C(CCc1ccc(F)c(F)c1)N1CCCCC1Cn1cccn1 (stereo unspecified)
6. COCc1nc2cc3c(cc2c(=O)o1)OCCCO3
7. Cc1ccc(N2C[C@@H]3OCCN(CC4CC4)[C@@H]3C2)nn1

1: -8.8; 2: -4.91; 3: -0.768; 4: 8.14; 5: -7.69; 6: -7.11; 7: -7.81

Please give cytotoxicity at 70.5 h for each item listed below.
1. Cc1cc(C)n(Cc2cccc(C(=O)N(CCC#N)CCC#N)c2)n1
2. CC1(C)CNC(=O)c2nc(CCN3CCOCC3)[nH]c2C1
3. CCCS(=O)(=O)N1CCC2(CC(=O)N(c3cnn(C)c3)C2)C1 (stereo unspecified)

[-0.535, -7.47, -7.78]

====

Assay: Human HepG2 cell viability assay in 384 well format
Type: toxicity, cell-based
Parameters: dose 125 nL, time 70.5 hour; concentration not given beside the values
Settings: HepG2 cells, read-out: Inhibition
MEASURED_PROPERTY: cytotoxicity at 70.5 h (%)
Numbers only, in %.

Examples from the recorded data:
c1ccc(CN2CCC3(COCc4cnc(NCC5CC5)nc43)C2)cc1 (stereo not given) = -3.62
COc1ccc(-n2nc(C3CC3)nc2CCn2cnnn2)cc1 = 26.8
Cn1c(NCC(O)c2ccccc2F)c(C#N)c(=O)n(C)c1=O (stereo not given) = -1.35
Cc1ccc(CN2CCCn3c(nc(Cn4ccnc4)cc3=O)C2)o1 = -6.14
COc1c(CNCCC(=O)Nc2cccc(C)n2)c(C(C)C)nn1C = 14.3

Please give cytotoxicity at 70.5 h for each item listed below.
1. Cc1ccccc1CN(Cc1ccccn1)C(=O)CNS(C)(=O)=O
2. O=C(Nc1ccc2c(c1)OCO2)N1CCN(CCn2ccnc2)CC1
3. O=C(c1ccco1)N1Cc2cnn(CC3CC3)c2C(COCC2CC2)C1 (stereo not given)
4. CCc1cc(N2CCC(NC3CCOCC3)CC2)nc(N(C)C)n1
5. CS(=O)(=O)CCN1CCC(Nc2c(Cl)cccc2C#N)CC1

1: 25.2; 2: -6.54; 3: 15.4; 4: 25.7; 5: -94

====

Assay: Human HepG2 cell viability assay in 384 well format
Format: toxicity, cell-based
Set-up: dose 125 nL, time 70.5 hour; concentration not given beside the values
Conditions: HepG2 cells, read-out: Inhibition
MEASURED_PROPERTY: cytotoxicity at 70.5 h (%)
Give bare numbers, in %.

O=C1CC(N(C(=O)c2ccc(F)c(F)c2)C2CC2)C(=O)N1 (configuration not stated) = -9.51
CC(C)OCCCNC(=O)CS(=O)(=O)Cc1ccc(C(C)(C)C)cc1 = -5.34
CC(C)c1cc(CSCCC(=O)O)no1 = -4.33
COCCOCC(=O)Nc1cccc(CN(C)C(C)=O)c1 = 27.5
COc1ccccc1OC1CN(C(=O)Cc2c(C)nc(N)nc2C)C1 = 1.7
Cc1ccc(C(=O)N(Cc2ccccc2F)C2CC2)c(=O)[nH]1 = 7.09
COc1cc(F)ccc1C(C(=O)O)N1CCN(C2CCCCC2)CC1 (configuration not stated) = -4.9
CC(=O)c1cccc(OCCCC(=O)NCC2CCCN2C)c1 (configuration not stated) = 7.09
NC(=O)c1ccnc(N2CCN(Cc3ccc(F)cc3Cl)CC2)c1 = -15.2
COc1ccccc1C(=O)N1CCN(C(=O)CCCc2cn[nH]c2)CC1 = -6.9

Please give cytotoxicity at 70.5 h for each item listed below.
1. CC(Cn1cncn1)NCCN1CCc2ccccc21 (configuration not stated)
2. CCC(CNC(=O)NC1CCN(C)CC1)Oc1ccccc1Cl (configuration not stated)
3. CCOCc1nnc(NCc2cccc(C)c2)o1
4. CCOC(=O)c1ccc(S(=O)(=O)NCC(CC)N2CCCC2)cc1 (configuration not stated)
5. NC(=O)C1CCN(Cn2nc(-c3ccc(F)cc3)oc2=O)CC1

[-5.52, 30.5, -3.75, -5.87, 5.9]

====

Assay: Human HepG2 cell viability assay in 384 well format
Type: toxicity, cell-based
Parameters: dose 125 nL, time 70.5 hour; concentration not given beside the values
Conditions: HepG2 cells, read-out: Inhibition
MEASURED_PROPERTY: cytotoxicity at 70.5 h (%)
Numbers only, in %.

Examples from the recorded data:
NS(=O)(=O)N1CCc2ccc(NC(=O)Cc3ccccc3F)cc21 = 22.4
CC(=O)Nc1ccc(C(=O)N2CCOc3nc(C)ccc32)cc1 = -0.0601
CC(C)c1csc(NC(=O)NC2CCCN(c3cnn(C)c3)C2)n1 (centres undefined) = -7.46
O=C(CC1CCN(c2ncnc3cccc(F)c23)CC1)N1CCCC1 = -24.3

Please give cytotoxicity at 70.5 h for each item listed below.
1. CC(C)C(NC(=O)NCC1(CO)CC1)c1nnc2n1CCC2 (centres undefined)
2. Fc1ccccc1CN(CCCn1ccnc1)CC1CCOC1 (centres undefined)

1. -4.32
2. 9.07

Please give cytotoxicity at 70.5 h for each item listed below.
1. COc1ccc(CNC(=O)CNc2ccccc2OC)cc1
2. CC1CCCCN1C(=O)COCc1nc(-c2ccncc2)no1 (centres undefined)
3. CC(=O)N1CCC(c2cnc(NC3CCOCC3)cn2)CC1

1. 2.91
2. 4.94
3. -6.84
